meta.source: paper PMC6931074

- Type: physicochemical
- assay conditions: aqueous phosphate buffer, pH 1.85, half-time (t1/2), pH 1.85, 100 °C

{"columns": ["compound", "half-life at 150 μg/mL"],
 "data": [
  ["CC(/C=C1\\SC(=S)N(CC(=O)O)C1=O)=C\\c1ccccc1 [epalrestat]", "10.6 h"]
]}

----------
- Format: physicochemical
- assay conditions: phosphate buffer, pH 9.08, half-time (t1/2), pH 9.08, 100 °C
experimental readout: half-life at 150 μg/mL (h)

{"columns": ["smiles entry", "experimental readout", "recorded number"],
 "data": [
  ["CC(/C=C1\\SC(=S)N(CC(=O)O)C1=O)=C\\c1ccccc1", "half-life at 150 μg/mL", 10]
]}

----------
- Assay type: physicochemical
- assay conditions: phosphate buffer, pH 9.08, half-time (t1/2), pH 9.08, 80 °C
experimental readout: half-life at 150 μg/mL

{"columns": ["compound", "experimental readout", "result"],
 "data": [
  ["CC(/C=C1\\SC(=S)N(CC(=O)O)C1=O)=C\\c1ccccc1 [epalrestat]", "half-life at 150 μg/mL", "26.2 h"]
]}

----------
- Format: physicochemical
- assay conditions: aqueous phosphate buffer, pH 5, half-time (t1/2), pH 5.00, 100 °C
experimental readout: half-life at 150 μg/mL

{"columns": ["compound", "experimental readout", "result"],
 "data": [
  ["CC(/C=C1\\SC(=S)N(CC(=O)O)C1=O)=C\\c1ccccc1 [epalrestat]", "half-life at 150 μg/mL", "9.67 h"]
]}

----------
- Type: physicochemical
- assay conditions: aqueous phosphate buffer, pH 1.85, half-time (t1/2), pH 1.85, 80 °C
experimental readout: half-life at 150 μg/mL (h)

{"columns": ["molecule", "recorded number"],
 "data": [
  ["CC(/C=C1\\SC(=S)N(CC(=O)O)C1=O)=C\\c1ccccc1 [epalrestat]", 24.6]
]}

----------
- Format: physicochemical
- assay conditions: phosphate buffer, pH 7.1, half-time (t1/2), pH 7.10, 37 °C

{"columns": ["smiles entry", "half-life at 150 μg/mL (h)"],
 "data": [
  ["CC(/C=C1\\SC(=S)N(CC(=O)O)C1=O)=C\\c1ccccc1", 45.3]
]}

----------
- Format: physicochemical
- assay conditions: aqueous phosphate buffer, pH 1.85, half-time (t1/2), pH 1.85, 25 °C
experimental readout: half-life at 150 μg/mL (min)

{"columns": ["smiles entry", "unit info", "recorded number"],
 "data": [
  ["CC(/C=C1\\SC(=S)N(CC(=O)O)C1=O)=C\\c1ccccc1", "min", 2600]
]}

----------
- Type: physicochemical
- assay conditions: aqueous phosphate buffer, pH 3.13, half-time (t1/2), pH 3.13, 80 °C

{"columns": ["smiles entry", "half-life at 150 μg/mL"],
 "data": [
  ["CC(/C=C1\\SC(=S)N(CC(=O)O)C1=O)=C\\c1ccccc1", "23.3 h"]
]}

----------
- Type: physicochemical
- assay conditions: phosphate buffer, pH 7.1, half-time (t1/2), pH 7.10, 60 °C

{"columns": ["compound", "half-life at 150 μg/mL"],
 "data": [
  ["CC(/C=C1\\SC(=S)N(CC(=O)O)C1=O)=C\\c1ccccc1 [epalrestat]", "35.5 h"]
]}
